System: ACHN renal
protocol text: NCI-60 one-dose screen, 48 h
condition: 10 µM unless noted
Procedure: Growth inhibition of the ACHN human tumor cell line is measured as a screen for anti-cancer activity. Cells are grown in 96 well plates and exposed to the test compound for 48 hours. Compounds are tested at a single concentration, which is 10^-5 M for most compounds. The reported endpoint is percent growth (GI% or GIPRCNT), where numbers from 0 - 100% represent growth inhibition, and numbers from -100% - 0 represent cell death. For example, a value of 40 represents 60% growth inhibition. […]
About 83,000 compounds went through this panel and 20% of them were active in at least one assay; those are over-represented in the sample as a whole. The source made the active and inactive calls. How the source made its calls: active means growth percent below 10; inactive means the rest.
Classes used: active, inactive

{"molecule": "CCCC1CCCCN1C(=O)OCC(C)C (stereo not given)", "system under test": "ACHN renal", "category": "inactive"}
{"molecule": "O=C(/C=C/c1cccc2ccccc12)Nc1ncc(Cc2ccccc2)s1", "system under test": "ACHN renal", "category": "inactive"}
{"molecule": "C=C1CC[C@@H](C(=O)OC)Cc2nc(C)ccc21", "system under test": "ACHN renal", "category": "inactive"}
{"molecule": "CCCCC[C@H]1C/C=C2/C(=O)C(Cl)=C[C@@H]2C/C=C\\CCCC(=O)O1", "system under test": "ACHN renal", "category": "active"}
{"molecule": "C=C1C(=O)O[C@H]2[C@H]1CC/C(COC(=O)NCc1c[nH]c3ccccc13)=C\\CC[C@@]1(C)O[C@@H]21", "system under test": "ACHN renal", "category": "active"}

###

System: RPMI-8226 leukemia
protocol text: NCI-60 one-dose screen, 48 h (100 = growth as untreated, 0 = no growth, -100 = all killed)
condition: 10 µM unless noted
About 83,000 compounds went through this panel and 20% of them were active in at least one assay; those are over-represented in the sample as a whole.
Examples of compounds with documented growth follow.
experimental endpoint: growth (%)

{"compound": "Cc1ccc2c(c1)c1nc3cc(C)c(C)cc3nc1n2CCN(C)C", "system under test": "RPMI-8226 leukemia", "measurement units": "%", "test value": 1.96}
{"compound": "Cc1cc(N2CCOCC2)nc(N(CCCNc2ccnc3cc(Cl)ccc23)Cc2ccco2)n1", "system under test": "RPMI-8226 leukemia", "measurement units": "%", "test value": 19.4}
{"compound": "CC1c2ccccc2N(S(=O)(=O)c2ccccc2)C1C (stereo not given)", "system under test": "RPMI-8226 leukemia", "measurement units": "%", "test value": 91.9}
{"compound": "COc1ccc2c(c1)c(-c1nc(-c3cn(C)c4ncccc34)cs1)cn2CCCN1CCCCC1", "system under test": "RPMI-8226 leukemia", "measurement units": "%", "test value": -8.74}
{"compound": "Cn1cc(-c2nc(-c3c[nH]c4ncccc34)cs2)c2cc(Br)ccc21", "system under test": "RPMI-8226 leukemia", "measurement units": "%", "test value": 72.6}
{"compound": "Cc1ccncc1C(=O)O", "system under test": "RPMI-8226 leukemia", "measurement units": "%", "test value": 108}
{"compound": "O=C1/C(=C\\C(Cl)=C/c2ccc([N+](=O)[O-])cc2)SC(=S)N1CCc1ccc(O)cc1", "system under test": "RPMI-8226 leukemia", "measurement units": "%", "test value": -3.41}
{"compound": "COc1cc(/C=N/Nc2ncnc3c2c(C)nn3-c2ccc(F)cc2)ccc1O", "system under test": "RPMI-8226 leukemia", "measurement units": "%", "test value": 92.5}
{"compound": "O=C(/C=C\\c1ccc2c(c1)OCO2)/C=C/c1ccc2c(c1)OCO2", "system under test": "RPMI-8226 leukemia", "measurement units": "%", "test value": -9.97}
{"compound": "CC(=O)OC[C@]12CC[C@@H](/C(C)=N/O)[C@@H]1[C@H]1CC[C@@H]3[C@@]4(C)CCCNC(C)(C)[C@@H]4CC[C@@]3(C)[C@]1(C)CC2", "system under test": "RPMI-8226 leukemia", "measurement units": "%", "test value": 49.2}
